Taken from patent US20030148956A1.

- EXPERIMENTAL TARGET: T1, corticotropin releasing factor 2 receptor
- T1 sequence (Q13324 whole entry, species assumed, looked up): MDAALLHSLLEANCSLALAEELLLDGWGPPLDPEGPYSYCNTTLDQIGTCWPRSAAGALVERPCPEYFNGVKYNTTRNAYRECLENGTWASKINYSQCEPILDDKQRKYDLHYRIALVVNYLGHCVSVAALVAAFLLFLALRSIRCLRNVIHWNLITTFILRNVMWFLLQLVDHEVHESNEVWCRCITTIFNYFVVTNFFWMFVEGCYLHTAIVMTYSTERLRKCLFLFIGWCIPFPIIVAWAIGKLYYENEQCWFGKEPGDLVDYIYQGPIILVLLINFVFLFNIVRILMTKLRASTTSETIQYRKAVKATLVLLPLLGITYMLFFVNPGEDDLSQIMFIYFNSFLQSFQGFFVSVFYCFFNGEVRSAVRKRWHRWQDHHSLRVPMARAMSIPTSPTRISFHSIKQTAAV
- TEST DETAILS: cell-based or functional assay
Ends that are not written are not given here.
Label 1 for high-side CRF2R EC50 (at or above 10 nM) and -1 for low-side CRF2R EC50 (below it).

Is reported CRF2R EC50 greater than or equal to 10 nM here: ZGPPISIDLPFQLLRKAIEIEKQEKEKQQAANNALLLATI (C-terminal amide) [SEQ ID NO 364]
1

Record ZGPPISIDVPFQLLRKVIEIEKQEKEKQQAANNARLLDTI (C-terminal amide) [SEQ ID NO 382] ; criterion: CRF2R EC50 no lower than 10 nM. Met?
1

Does the reported CRF2R EC50 for ZGPPISIDVPLQLLRKVIEIEKQEKEKQQAANNARLLARI (C-terminal amide) [SEQ ID NO 381] fall at or above the 10 nM mark?
1

Form field: CRF2R EC50 at least 10 nM? Entry: ZGPPISIDLPFFLLRKMIEIEKQEKEKQQAANNALLLATI (C-terminal amide) [SEQ ID NO 319]
-1

Decide: CRF2R EC50 of ZGPPISIDLPIYLLRKMIEIEKQEKEKQQAANNALLLDTI (C-terminal amide) [SEQ ID NO 236] >= 10 nM?
1

API: above_or_equal(metric=CRF2R EC50, cutoff=10 nM) for item DNPSLSIDLPLLLLRTLLELEKTQSQRERAEQNAIIFASV-NH2 [SEQ ID NO 346]
-1

# check: CRF2R EC50 of ZGPPISIDLPLYLLRKMIEIEKQEKEKQQATTNARILARV (C-terminal amide) [SEQ ID NO 353] is greater than or equal to 10 nM
-1

Textbook exercise: given the entry ZGPPISIDLPIILLRKMIEIEKQEKEKQQAANNARLLARI (C-terminal amide) [SEQ ID NO 290] , state whether its CRF2R EC50 is greater than or equal to 10 nM.
1
